testedTarget: NlugOBP1 (Nilaparvata lugens)
Sequence (B6E9U1 entry or part of it): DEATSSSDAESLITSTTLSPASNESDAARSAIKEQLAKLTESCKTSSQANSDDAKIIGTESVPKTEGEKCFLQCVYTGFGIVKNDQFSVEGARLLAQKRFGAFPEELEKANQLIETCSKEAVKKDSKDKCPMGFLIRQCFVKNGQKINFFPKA
experiment: Competitive fluorescence binding assay (1-NPN probe) with recombinant NlugOBP1
settings: displacement of 1-NPN; protein and 1-NPN at 2 µM; 50 mM Tris-HCl pH 7.4; read-out: OBP1 IC50
measurementLabel: IC50 (µM)

{"molecule": "C=CC(=C)CCC=C(C)C", "IC50 [µM]": 19}
{"molecule": "OCCc1ccccc1", "IC50 [µM]": 39.9}
{"molecule": "CCCCCCCCCCCC=O", "IC50 [µM]": 19.5}

I. CCCCCCCCCCCC(C)=O
II. CCCCCCOC(C)=O [Ligand 21, Hexyl acetate]
Please tell me which of the two, I or II , has the higher reported IC50 value. Mark your selection by writing its label.
II
(II: 44.4 µM, I: 24 µM)

====

testedTarget: NlugOBP2 (Nilaparvata lugens)
experiment: Competitive fluorescence binding assay (1-NPN probe) with recombinant NlugOBP2
Listing of entries alongside the reported pIC50.
Value format note: pIC50 is -log10 of concentration (mol/L); just state the number.

For COC(C)(C)CCC[C@H](C)C/C=C/C(C)=C/C(=O)OC(C)C (racemic) [Ligand 39, Methoprene] the molecule record lists pIC50 as 4.68

For O=Cc1ccccc1 [Ligand 14, Benzaldehyde] the molecule record lists pIC50 as 4.41

For COC(=O)c1ccccc1O [Ligand 25, Methyl salicylate] the molecule record lists pIC50 as 4.43

====

testedTarget: NlugOBP1 (Nilaparvata lugens)
experiment: Competitive fluorescence binding assay (1-NPN probe) with recombinant NlugOBP1
pKi: −log10 of the molar value.
measurementLabel: pKi

# count of solved cases: 2
{"compound": "C=C1CC/C=C(\\C)CC[C@@H]2[C@@H]1CC2(C)C", "value": "< 4.30"}
{"compound": "CCCCCCCCCCCC(=O)O", "value": 4.99}

For CC1=CC[C@@H]2C[C@H]1C2(C)C [Ligand 34, (+)-α-Pinene] the compound record lists pKi as 4.51

For `CC(=O)/C=C/C1=C(C)CCCC1(C)C` the compound record lists pKi as 4.67

For CCC/C=C/C=O [Ligand 13, (E)-2-Hexenal] the compound record lists pKi as < 4.30

====

testedTarget: NlugOBP2 (Nilaparvata lugens)
experiment: Competitive fluorescence binding assay (1-NPN probe) with recombinant NlugOBP2
settings: calculated from IC50; protein and 1-NPN at 2 µM; pH 7.4; read-out: OBP2 Ki
measurementLabel: Ki (µM)

# count of solved cases: 2
{"molecule": "C=CC(C)(O)CC/C=C(\\C)CCC=C(C)C (racemic) [Ligand 3, (+/-)Nerolidol]", "Ki, µM": 29.1}
{"molecule": "CC(C)=CCC/C(C)=C/CC/C(C)=C/CO [Ligand 5, Farnesol]", "Ki, µM": 19.8}

A. CC/C=C\CCOC(C)=O [Ligand 22, (Z)-3-Hexenyl acetate]
B. CCCCCCCCCCCCCC(C)=O [Ligand 16, 2-Pentadecanone]
Please tell me which of the two, A or B , has the higher reported Ki value. Mark your selection by writing its label.
A

I. CCCCCCCCCCCC(C)=O [Ligand 15, 2-Tridecanone]
II. CCC/C=C/COC(C)=O [Ligand 20, (E)-2-Hexenyl acetate]
Compare I and II and name the one whose reported Ki is smaller. Mark your selection by writing its label.
II

====

testedTarget: NlugOBP3 (Nilaparvata lugens)
Sequence (B6E9U3 entry or part of it): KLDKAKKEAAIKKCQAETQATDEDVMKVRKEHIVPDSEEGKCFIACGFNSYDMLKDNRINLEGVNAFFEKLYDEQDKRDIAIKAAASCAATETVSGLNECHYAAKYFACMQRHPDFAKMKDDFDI
experiment: Competitive fluorescence binding assay (1-NPN probe) with recombinant NlugOBP3
measurementLabel: binding ability with NlugOBP3 (in words)

# count of solved cases: 5
{"compound": "CC(=O)OCCC(C)C [Ligand 19, Isoamyl acetate]", "testedTarget": "NlugOBP3 (Nilaparvata lugens)", "measurementLabel": "binding ability with NlugOBP3 (in words)", "value": "none"}
{"compound": "C=CC(C)(O)CCC=C(C)C (centres unmarked)", "testedTarget": "NlugOBP3 (Nilaparvata lugens)", "measurementLabel": "binding ability with NlugOBP3 (in words)", "value": "none"}
{"compound": "C=C1CC/C=C(\\C)CC[C@@H]2[C@@H]1CC2(C)C", "testedTarget": "NlugOBP3 (Nilaparvata lugens)", "measurementLabel": "binding ability with NlugOBP3 (in words)", "value": "considerable affinities"}
{"compound": "CC(C)=CCC/C(C)=C/CC/C(C)=C/CO", "testedTarget": "NlugOBP3 (Nilaparvata lugens)", "measurementLabel": "binding ability with NlugOBP3 (in words)", "value": "high binding ability"}
{"compound": "C=C(C)[C@H]1CC=C(C)CC1 [Ligand 35, (R)-(+)-Limonene]", "testedTarget": "NlugOBP3 (Nilaparvata lugens)", "measurementLabel": "binding ability with NlugOBP3 (in words)", "value": "considerable affinities"}

Let us examine a further case.
// binding ability with NlugOBP3 (in words) (NlugOBP3 (Nilaparvata lugens)) for COC(C)(C)CCC[C@H](C)C/C=C/C(C)=C/C(=O)OC(C)C (racemic) = high binding ability

====

testedTarget: NlugOBP2
experiment: Competitive fluorescence binding assay (1-NPN probe) with recombinant NlugOBP2
settings: displacement of 1-NPN; protein and 1-NPN at 2 µM; 50 mM Tris-HCl pH 7.4; read-out: OBP2 IC50
measurementLabel: IC50 (µM)
Could you give me the number in µM? Just the number is fine.

For `C[C@@H]1CC[C@H]2C(C)(C)[C@H]3C[C@@]12CC[C@@]3(C)O` the compound record lists IC50 as 35

====

Listing of entries alongside the reported Ki.
testedTarget: NlugOBP2 (Nilaparvata lugens, UniProt B6E9U2)
Sequence (B6E9U2 entry or part of it): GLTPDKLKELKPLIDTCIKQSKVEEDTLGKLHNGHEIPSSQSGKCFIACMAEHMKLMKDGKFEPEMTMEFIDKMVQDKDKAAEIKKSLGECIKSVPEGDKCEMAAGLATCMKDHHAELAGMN
experiment: Competitive fluorescence binding assay (1-NPN probe) with recombinant NlugOBP2
settings: calculated from IC50; protein and 1-NPN at 2 µM; pH 7.4; read-out: OBP2 Ki

{"compound": "CCCCCCCCCCCCCCCCC", "Ki": "> 50 µM"}
{"compound": "C=CC(=C)CCC=C(C)C", "Ki": "29.1 µM"}
{"compound": "CCCCCCCCCCCCCC", "Ki": "> 50 µM"}
{"compound": "CCCCCCCCCCCCC", "Ki": "> 50 µM"}
{"compound": "CCCCCOC(C)=O [Ligand 18, Amyl acetate]", "Ki": "> 50 µM"}

Let us examine a further case.
// Ki (NlugOBP2 (Nilaparvata lugens, UniProt B6E9U2)) for CCCCCC(C)O (stereo not drawn) = > 50 µM

====

testedTarget: NlugOBP2 (Nilaparvata lugens)
experiment: Competitive fluorescence binding assay (1-NPN probe) with recombinant NlugOBP2
settings: displacement of 1-NPN; protein and 1-NPN at 2 µM; 50 mM Tris-HCl pH 7.4; read-out: OBP2 IC50
Listing of entries alongside the reported IC50.

{"compound": "CC(=O)OCCC(C)C [Ligand 19, Isoamyl acetate]", "testedTarget": "NlugOBP2 (Nilaparvata lugens)", "measurementLabel": "IC50", "value": "> 50 µM"}

For CCCCCCCCCCCCCC(C)=O [Ligand 16, 2-Pentadecanone] the compound record lists IC50 as 19.8 µM

For CCCCCCCCCCCC(C)=O [Ligand 15, 2-Tridecanone] the compound record lists IC50 as 43.2 µM

For CC12CCC(CC1)C(C)(C)O2 [Ligand 40, Cineole] the compound record lists IC50 as > 50 µM

For CC(C)(C)c1cccc(C(C)(C)C)c1O [Ligand 41, 2,6-Di-tert-butylphenol] the compound record lists IC50 as > 50 µM

For C=CC(C)(O)CC/C=C(\C)CCC=C(C)C (racemic) [Ligand 3, (+/-)Nerolidol] the compound record lists IC50 as 33.9 µM

For CCCCCCCCCCCCC [Ligand 29, Tridecane] the compound record lists IC50 as > 50 µM

For CCCCCC(C)O (centres unmarked) [Ligand 2, 2-Heptanol] the compound record lists IC50 as > 50 µM

For CCCCCCOC(C)=O [Ligand 21, Hexyl acetate] the compound record lists IC50 as > 50 µM

For CC(C)=CCC/C(C)=C/CC/C(C)=C/CO [Ligand 5, Farnesol] the compound record lists IC50 as 23 µM

For CCCCCCCCCCCCCCCC(=O)O [Ligand 27, Palmitic acid] the compound record lists IC50 as > 50 µM

For CCCCCCCCCCCCCCCCC [Ligand 30, Heptadecane] the compound record lists IC50 as > 50 µM

For CC(=O)c1ccccc1 [Ligand 17, Acetophenone] the compound record lists IC50 as 32.3 µM

For C=CC(=C)CCC=C(C)C [Ligand 33, Myrcene] the compound record lists IC50 as 33.9 µM

For OCCc1ccccc1 [Ligand 7, 2-phenylethanol] the compound record lists IC50 as > 50 µM

====

testedTarget: NlugOBP2 (Nilaparvata lugens)
experiment: Competitive fluorescence binding assay (1-NPN probe) with recombinant NlugOBP2
Listing of entries alongside the reported pIC50.
Value format note: pIC50 is -log10 of concentration (mol/L); just state the number.

For CCC/C=C/C=O [Ligand 13, (E)-2-Hexenal] the compound record lists pIC50 as 4.47

For CC(=O)/C=C/C1=C(C)CCCC1(C)C [Ligand 37, β- Ionone] the compound record lists pIC50 as 4.59

For CC(C)c1ccccc1 [Ligand 38, Cumene] the compound record lists pIC50 as 4.41

For C=C1CC/C=C(\C)CC[C@@H]2[C@@H]1CC2(C)C [Ligand 36, β-Caryophyllene] the compound record lists pIC50 as 4.52
